Values compiled from ChEMBL document CHEMBL1123964.

Measured On: Gonadotropin-releasing hormone receptor (Rattus norvegicus)
Sequence (whole entry): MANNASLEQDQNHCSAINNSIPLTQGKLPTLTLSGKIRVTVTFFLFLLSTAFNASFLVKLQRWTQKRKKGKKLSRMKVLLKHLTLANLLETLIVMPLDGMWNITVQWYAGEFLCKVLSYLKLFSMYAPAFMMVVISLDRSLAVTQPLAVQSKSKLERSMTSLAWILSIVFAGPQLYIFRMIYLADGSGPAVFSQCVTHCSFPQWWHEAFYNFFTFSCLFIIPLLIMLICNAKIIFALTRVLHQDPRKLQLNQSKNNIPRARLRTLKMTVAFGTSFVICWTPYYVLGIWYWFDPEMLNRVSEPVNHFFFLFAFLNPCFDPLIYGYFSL
Experiment Summary: Antiovulatory activity on diestrus II following administration as a solution in corn oil (24h earlier) in rat.
Format: functional, organism-based
Metric Name: ED50 (ug injection-1)
Number, no unit, nothing else.

Recorded ED50 (ug injection-1) for CCNC(=NCCCC[C@@H](NC(=O)[C@H](Cc1ccc(O)cc1)NC(=O)[C@H](CO)NC(=O)[C@@H](Cc1c[nH]c2ccccc12)NC(=O)[C@@H](Cc1ccc(Cl)cc1)NC(=O)[C@@H](Cc1ccc(Cl)cc1)NC(C)=O)C(=O)N[C@@H](CC(C)C)C(=O)N[C@@H](CCCN=C(N)N)C(=O)N1CCC[C@H]1C(=O)NCC(N)=O)NCC , please?
16

Recorded ED50 (ug injection-1) for CC(=O)N1CCC[C@H]1C(=O)N[C@H](Cc1ccc(F)cc1)C(=O)N[C@H](Cc1ccc2ccccc2c1)C(=O)N[C@@H](CO)C(=O)NC(Cc1ccc(O)cc1)C(=O)N[C@@H](Cc1ccc2ccccc2c1)C(=O)N[C@@H](CC(C)C)C(=O)N[C@@H](CCCN=C(N)N)C(=O)N1CCC[C@H]1C(=O)NCC(N)=O (stereo in doubt) , please?
140

Recorded ED50 (ug injection-1) for CCNC(=NCCCC[C@@H](NC(=O)[C@H](Cc1ccc(O)cc1)NC(=O)[C@H](CO)NC(=O)[C@@H](Cc1c[nH]c2ccccc12)NC(=O)[C@@H](Cc1ccc(Cl)cc1)NC(=O)[C@@H](Cc1ccc2ccccc2c1)NC(C)=O)C(=O)N[C@@H](CC(C)C)C(=O)N[C@@H](CCCN=C(N)N)C(=O)N1CCC[C@H]1C(=O)NNC(N)=O)NCC , please?
9.5

Recorded ED50 (ug injection-1) for CCNC(=NCCCC[C@@H](NC(=O)[C@H](Cc1ccc(O)cc1)NC(=O)[C@H](CO)NC(=O)[C@@H](Cc1c[nH]c2ccccc12)NC(=O)[C@@H](Cc1ccc(F)cc1)NC(=O)[C@@H](Cc1ccc2ccccc2c1)NC(C)=O)C(=O)N[C@@H](CC(C)C)C(=O)N[C@@H](CCCN=C(N)N)C(=O)N1CCC[C@H]1C(=O)NCC(N)=O)NCC , please?
3.5

---

Measured On: Gonadotropin-releasing hormone receptor (Rattus norvegicus) (UniProt P30969)
Experiment Summary: Antiovulatory activity on proestrus following administration of solution in corn oil in rat.
Type: functional, organism-based
Kindly supply the reported ED50 (ug injection-1) values for the records listed here.
Number, no unit, nothing else.

Recorded ED50 (ug injection-1) for CCNC(=NCCCC[C@@H](NC(=O)[C@H](Cc1ccc(O)cc1)NC(=O)[C@H](CO)NC(=O)[C@@H](Cc1ccc2ccccc2c1)NC(=O)[C@@H](Cc1ccc(Cl)cc1)NC(=O)[C@@H](Cc1ccc2ccccc2c1)NC(C)=O)C(=O)N[C@@H](CC(C)C)C(=O)N[C@@H](CCCN=C(N)N)C(=O)N1CCC[C@H]1C(=O)N[C@H](C)C(N)=O)NCC , please?
1.7

Recorded ED50 (ug injection-1) for CCNC(=NCCCC[C@@H](NC(=O)[C@H](Cc1ccc(O)cc1)NC(=O)[C@H](CO)NC(=O)[C@@H](Cc1c[nH]c2ccccc12)NC(=O)[C@@H](Cc1ccc(Cl)cc1)NC(=O)[C@@H](Cc1ccc(Cl)cc1)NC(C)=O)C(=O)N[C@@H](CC(C)C)C(=O)NC(CCCN=C(N)N)C(=O)N1CCC[C@H]1C(=O)N[C@H](C)C(N)=O)NCC (stereo partly drawn) , please?
1.6

Recorded ED50 (ug injection-1) for CCCNC(=NCCCC[C@@H](NC(=O)[C@H](Cc1ccc(O)cc1)NC(=O)[C@H](CO)NC(=O)[C@@H](Cc1c[nH]c2ccccc12)NC(=O)[C@@H](Cc1ccc(Cl)cc1)NC(=O)[C@@H](Cc1ccc(Cl)cc1)NC(C)=O)C(=O)N[C@@H](CC(C)C)C(=O)N[C@@H](CCCN=C(N)N)C(=O)N1CCC[C@H]1C(=O)NCC(N)=O)NCCC , please?
2.3
